test system: CMK; assay: CellTox Green cytotoxicity fluorescence relative to DMSO vehicle (fold of vehicle RFU); higher = more cell death (loss of membrane integrity), active = 2 or more; settings: 0.1 µM; 72 h
Each entry below carries its recorded CellTox Green cytotoxicity fluorescence.

- Molecule: "N#Cc1ccc(-c2c(-c3ncn[nH]3)sc(N3CCOCC3)c2C#N)c(F)c1"
  CellTox Green cytotoxicity fluorescence: 0.919
- Molecule: "C[C@H]1Oc2cc(cnc2N)-c2c(nn(C)c2C#N)CN(C)C(=O)c2ccc(F)cc21"
  CellTox Green cytotoxicity fluorescence: 0.948
- Molecule: "c1ccc2c(CCNc3ccc(Nc4ccncc4)cc3)c[nH]c2c1 [Serdemetan]"
  CellTox Green cytotoxicity fluorescence: 1.05
- Molecule: "O=C1C(=O)N(Cc2ccc(Cl)c(Cl)c2)c2ccccc21 [Apoptosis Activator 2]"
  CellTox Green cytotoxicity fluorescence: 1.02
- Molecule: "COc1ccc(CCNCc2ccc(OCc3ccc(Cl)nc3)c(OC)c2)cc1OC"
  CellTox Green cytotoxicity fluorescence: 0.961
- Molecule: "CCN(CC)CCNC(=O)c1c(C)[nH]c(/C=C2\\C(=O)Nc3ccc(F)cc32)c1C [Sunitinib]"
  CellTox Green cytotoxicity fluorescence: 0.964
- Molecule: "COc1ccc(C2=N[C@@H](c3ccc(Cl)cc3)[C@@H](c3ccc(Cl)cc3)N2C(=O)N2CCNC(=O)C2)c(OC(C)C)c1 [Nutlin-3]"
  CellTox Green cytotoxicity fluorescence: 1.03
- Molecule: "N#CC(=Cc1ccc(-c2cc(Cl)ccc2Cl)o1)C(=O)Nc1cccc2ncccc12"
  CellTox Green cytotoxicity fluorescence: 0.992
- Molecule: "CCCC[C@@H](C=O)NC(=O)[C@H](CC(C)C)NC(=O)OCc1ccccc1 [Calpeptin]"
  CellTox Green cytotoxicity fluorescence: 1.02
- Molecule: "CC1(C)CC[C@]2(NC(=O)C(C)(F)F)CC[C@]3(C)[C@H](C(=O)C=C4[C@@]5(C)C=C(C#N)C(=O)C(C)(C)[C@@H]5CC[C@]43C)[C@@H]2C1 [Omaveloxolone]"
  CellTox Green cytotoxicity fluorescence: 0.762
- Molecule: "O=C1NC(=NCc2cccs2)S/C1=C\\c1ccc2ncccc2c1"
  CellTox Green cytotoxicity fluorescence: 0.991
- Molecule: "CC(C)(C)C[C@@H]1N[C@@H](C(=O)N[C@H]2CC[C@H](O)CC2)[C@H](c2cccc(Cl)c2F)[C@]12C(=O)Nc1cc(Cl)ccc12"
  CellTox Green cytotoxicity fluorescence: 0.947
- Molecule: "CCOC(=O)c1[nH]c2cc(Cl)ccc2c1C(C(=O)NC(C)(C)C)N(C=O)Cc1ccc(Cl)cc1 (configuration not stated)"
  CellTox Green cytotoxicity fluorescence: 0.962
- Molecule: "CC[C@@]1(O)C(=O)OCc2c1cc1n(c2=O)Cc2cc3cc(O)ccc3nc2-1 [(S)-10-Hydroxycamptothecin]"
  CellTox Green cytotoxicity fluorescence: 2.02
- Molecule: "CC(C)CC(NC(=O)C(Cc1ccccc1)CC(O)C(Cc1ccccc1)NC(=O)OC(C)(C)C)C(=O)NC(Cc1ccccc1)C(N)=O (configuration not stated)"
  CellTox Green cytotoxicity fluorescence: 0.899
- Molecule: "Cc1cccc(CC(=O)N2CCc3c2ccc(-c2cn(C)c4ncnc(N)c24)c3F)n1"
  CellTox Green cytotoxicity fluorescence: 1
- Molecule: "Fc1ccc(CNc2ncnc3ccc(F)cc23)cc1 [Spautin-1]"
  CellTox Green cytotoxicity fluorescence: 0.916
